Test system: KRas-mediated phosphorylation of ERK in H727 cells
Assay: Inhibition of KRas-mediated phosphorylation of ERK (Cisbio HTRF pERK), H727 cells
Assay type: cell-based
Conditions: Homo sapiens, NCI-H727, 3 h, single point, 100 nM compound, 3 hrs, H727 cells
Recorded metric: inhibition at 0.1 µM (%)
Reply numerically in %, unit not repeated.

Observe how each entry below is paired with its result.
Compound | inhibition at 0.1 µM (%)
Cc1cc2c(c(-c3ncc4c(N5CCC[C@@](C)(O)C5)nc(OCC56CCCN5CCC6)nc4c3F)c1C)CC(=O)N2 [Example 784] | 0
CCc1c(F)ccc2cc(O)cc(-c3ncc4c(NC[C@@H]5C[C@H](CO)NC5=O)nc(OC[C@@]56CCCN5C[C@H](F)C6)nc4c3F)c12 [Example 576] | -2

Proceed to the following item.
State its inhibition at 0.1 µM on KRas-mediated phosphorylation of ERK in H727 cells: CCc1c(F)ccc2cc(O)cc(-c3ncc4c(N5CCC[C@@](C)(O)C5)nc(OCC5(CN(C)C)CC56CCC6)nc4c3F)c12 (stereo partly drawn) [Example 705]
3

====

Target: KRas^G12D (Homo sapiens, UniProt P01116, G12D)
Construct: Biotinylated KRas (corresponding to amino acids 1-169, produced at Accelegan Inc.); biotin (biotinylated); purchased Accelegan Inc
Sequence (P01116 1-169 isoform P01116-2 G12D): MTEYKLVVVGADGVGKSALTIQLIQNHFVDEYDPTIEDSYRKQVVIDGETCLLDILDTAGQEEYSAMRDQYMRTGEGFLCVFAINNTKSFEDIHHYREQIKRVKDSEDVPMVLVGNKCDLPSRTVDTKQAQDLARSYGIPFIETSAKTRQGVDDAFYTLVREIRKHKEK
Experiment: KRas binding assay (TR-FRET tracer displacement), KRas G12D
Recorded metric: IC50

Molecule | Test target | IC50
CCc1c(F)ccc2cc(O)cc(-c3ncc4c(N5CCC[C@@](C)(O)C5)nc(OCC5(CN(C)C)C(C)C5C)nc4c3F)c12 (stereo partly drawn) | KRas^G12D (Homo sapiens, UniProt P01116, G12D) | 3 nM
CCc1c(F)ccc2cc3[nH]ncc3c(-c3ncc4c(N5C[C@@H]6C[C@H](C5)[C@H](O)C6)nc(OC[C@@]56CCCN5C[C@H](F)C6)nc4c3F)c12 | KRas^G12D (Homo sapiens, UniProt P01116, G12D) | 6 nM
CCc1c(F)ccc2cc(O)cc(-c3ncc4c(NCc5cc(C(=O)N(C)C)nn5C[C@H]5C[C@H](O)C5)nc(OC[C@@]56CCCN5C[C@H](F)C6)nc4c3F)c12 | KRas^G12D (Homo sapiens, UniProt P01116, G12D) | 21 nM
CCc1c(F)ccc2cc(O)cc(-c3ncc4c(N5CC6CCC(C(=O)N(C)C)(C5)C6(F)F)nc(OC[C@@]56CCCN5C[C@H](F)C6)nc4c3F)c12 (stereo partly drawn) | KRas^G12D (Homo sapiens, UniProt P01116, G12D) | 297 nM
CCc1c(F)ccc2cc(O)cc(-c3ncc4c(N5CCCS(=O)(=O)CC5)nc(OC[C@@]56CCCN5C[C@H](F)C6)nc4c3F)c12 | KRas^G12D (Homo sapiens, UniProt P01116, G12D) | 33 nM
CCc1c(F)ccc2cc(O)cc(-c3ncc4c(N5CCC6(CNC(=O)OC6)C5)nc(OC[C@@]56CCCN5C[C@H](F)C6)nc4c3F)c12 (stereo partly drawn) | KRas^G12D (Homo sapiens, UniProt P01116, G12D) | 820 nM
CCc1c(F)ccc2cc(O)cc(-c3ncc4c(N5CCCC(C6CCNC6=O)C5)nc(OC[C@@]56CCCN5C[C@H](F)C6)nc4c3F)c12 (single isomer, unassigned) [Example 619] | KRas^G12D (Homo sapiens, UniProt P01116, G12D) | 33 nM
CCc1c(F)ccc2cc(O)cc(-c3ncc4c(NCc5c[nH]nc5NC(=O)C5COC5)nc(OC[C@@]56CCCN5C[C@H](F)C6)nc4c3F)c12 | KRas^G12D (Homo sapiens, UniProt P01116, G12D) | 85 nM
CCc1c(F)ccc2cc(O)cc(-c3ncc4c(N5CC6CN(C7COC7)CC6C5)nc(OC[C@@]56CCCN5C[C@H](F)C6)nc4c3F)c12 (stereo partly drawn) | KRas^G12D (Homo sapiens, UniProt P01116, G12D) | 891 nM
CCc1c(F)ccc2cc(O)cc(-c3ncc4c(N5CC6CCC(C5)C6CO)nc(OC[C@@]56CCCN5C[C@H](F)C6)nc4c3F)c12 (stereo partly drawn) | KRas^G12D (Homo sapiens, UniProt P01116, G12D) | 41 nM

Could you share which IC50 value was measured for `Cc1cc2[nH]nnc2c(-c2ncc3c(N4CCCn5nc(C(=O)N(C)C)cc5C4)nc(OCC45CCCN4CCC5)nc3c2F)c1C` ?
153 nM

Could you share which IC50 value was measured for CCc1c(F)ccc2cc(O)cc(-c3ncc4c(N5CCCC6(CCNS(=O)(=O)N6)C5)nc(OC[C@@]56CCCN5C[C@H](F)C6)nc4c3F)c12 (stereo partly drawn) ?
5 nM
